The values you see were collected from the supplement of paper PMC10307832.

# System: LU99A
# TEST PROTOCOL: relative viability (nuclei count vs DMSO), 5 days (fraction); higher = more cells survive
# STUDY CONDITIONS: first compound 0.2 µM
TEST READOUT: relative viability
No unit in the answer, please; the number alone is enough.

// worked examples, relative viability included
{"MOLECULE": "CCNC(=O)c1noc(-c2cc(C(C)C)c(O)cc2O)c1-c1ccc(CN2CCOCC2)cc1 [Luminespib] + Nc1nc2[nH]cc(CCc3ccc(C(=O)N[C@@H](CCC(=O)O)C(=O)O)cc3)c2c(=O)[nH]1 [Pemetrexed] (partner 0.2 µM)", "SYSTEM TESTED": "LU99A", "relative viability": 0.127}
{"MOLECULE": "CN1CCN(CCOc2cc(OC3CCOCC3)c3c(Nc4c(Cl)ccc5c4OCO5)ncnc3c2)CC1 [Saracatinib] + CC(C)C[C@H](NC(=O)[C@H](Cc1ccccc1)NC(=O)c1cnccn1)B(O)O [Bortezomib] (partner 0.002 µM)", "SYSTEM TESTED": "LU99A", "relative viability": 1}
{"MOLECULE": "CN1CCN(CCOc2cc(OC3CCOCC3)c3c(Nc4c(Cl)ccc5c4OCO5)ncnc3c2)CC1 [Saracatinib] + N=C(N)NC(=N)NCCc1ccccc1 [Phenformin] (partner 250 µM)", "SYSTEM TESTED": "LU99A", "relative viability": 0.617}
{"MOLECULE": "CCNC(=O)c1noc(-c2cc(C(C)C)c(O)cc2O)c1-c1ccc(CN2CCOCC2)cc1 [Luminespib] + CS(=O)(=O)CCNCc1ccc(-c2ccc3ncnc(Nc4ccc(OCc5cccc(F)c5)c(Cl)c4)c3c2)o1 [Lapatinib] (partner 2 µM)", "SYSTEM TESTED": "LU99A", "relative viability": 0.11}
{"MOLECULE": "Cc1csc(=NC2CCCCC2)n1/N=C/c1ccc(O)c(O)c1O [MIM1] + COc1cccc2cc(-c3nc([C@H]4CC[C@H](C(=O)O)CC4)n4ncnc(N)c34)[nH]c12 [OSI-027] (partner 0.5 µM)", "SYSTEM TESTED": "LU99A", "relative viability": 0.274}

Tell me the measured relative viability of Cc1csc(=NC2CCCCC2)n1/N=C/c1ccc(O)c(O)c1O [MIM1] + CS(=O)(=O)CCNCc1ccc(-c2ccc3ncnc(Nc4ccc(OCc5cccc(F)c5)c(Cl)c4)c3c2)o1 [Lapatinib] (partner 2 µM) , please. 1.08

Tell me the measured relative viability of Cc1csc(=NC2CCCCC2)n1/N=C/c1ccc(O)c(O)c1O [MIM1] + CC(=O)Nc1cccc(-n2c(=O)n(C3CC3)c(=O)c3c(Nc4ccc(I)cc4F)n(C)c(=O)c(C)c32)c1 [Trametinib] (partner 0.02 µM) , please. 0.571

Tell me the measured relative viability of CN1CCN(CCOc2cc(OC3CCOCC3)c3c(Nc4c(Cl)ccc5c4OCO5)ncnc3c2)CC1 [Saracatinib] + O=C(c1cc(Cc2n[nH]c(=O)c3ccccc23)ccc1F)N1CCN(C(=O)C2CC2)CC1 [Olaparib] (partner 8 µM) , please. 0.194

Tell me the measured relative viability of CCNC(=O)c1noc(-c2cc(C(C)C)c(O)cc2O)c1-c1ccc(CN2CCOCC2)cc1 [Luminespib] + Cc1nc(Nc2ncc(C(=O)Nc3c(C)cccc3Cl)s2)cc(N2CCN(CCO)CC2)n1 [Dasatinib] (partner 0.075 µM) , please. 0.0775
